// provenance: paper PMC9911399

Here, each record is paired with measured binding signal data.
experimental system: T1, RBFOX1 RRM RbFoxmut (Fox-RRM*) (Homo sapiens, UniProt Q9NWB1 109-208, R118D;E147R;N151S;E152T)
T1 sequence: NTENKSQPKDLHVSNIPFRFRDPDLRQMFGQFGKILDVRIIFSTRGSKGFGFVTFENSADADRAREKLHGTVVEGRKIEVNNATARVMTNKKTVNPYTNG
assay explanation: EMSA; HiTS-Eq, 1 nM pool, 10 min; buffer printed only for the single-RNA assays: 10 mM Tris pH 7.5, 150 mM NaCl, 3.4 mM EDTA, 0.001% NP-40, 30 C
assay conditions: tags: His6 N-terminal (pET28a); label: 5' 32P
In all, about 16,000 sequences were measured (“ka relative to ugcaugu”: median about 0.096, highest 2% from about 0.35 on). Only a selection was taken, and the highest values are over-represented in it overall.

[Q] I'd like to know its binding signal. The binder in question is GGCUUGC (DNA:RNA) RNA: GGGAGACCGGAAUUCAGAUUGUCCGGCUUGCUUAAAUCCCGUCGUAGCCACCA DNA 1: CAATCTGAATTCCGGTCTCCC DNA 2: TGGTGGCTACGACGGGATT
[A] 0.199 KA relative to UGCAUGU

[Q] I'd like to know its binding signal. The binder in question is ACGCGCA (DNA:RNA) RNA: GGGAGACCGGAAUUCAGAUUGUCCACGCGCAUUAAAUCCCGUCGUAGCCACCA DNA 1: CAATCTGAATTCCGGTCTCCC DNA 2: TGGTGGCTACGACGGGATT
[A] 0.15 KA relative to UGCAUGU

[Q] I'd like to know its binding signal. The binder in question is ACGCAUG (DNA:RNA) RNA: GGGAGACCGGAAUUCAGAUUGUCCACGCAUGUUAAAUCCCGUCGUAGCCACCA DNA 1: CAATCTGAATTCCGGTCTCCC DNA 2: TGGTGGCTACGACGGGATT
[A] 0.844 KA relative to UGCAUGU

[Q] I'd like to know its binding signal. The binder in question is GGAUUGA (DNA:RNA) RNA: GGGAGACCGGAAUUCAGAUUGUCCGGAUUGAUUAAAUCCCGUCGUAGCCACCA DNA 1: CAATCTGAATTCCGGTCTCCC DNA 2: TGGTGGCTACGACGGGATT
[A] 0.278 KA relative to UGCAUGU

[Q] I'd like to know its binding signal. The binder in question is ACGGAAU (DNA:RNA) RNA: GGGAGACCGGAAUUCAGAUUGUCCACGGAAUUUAAAUCCCGUCGUAGCCACCA DNA 1: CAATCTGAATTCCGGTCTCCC DNA 2: TGGTGGCTACGACGGGATT
[A] 0.115 KA relative to UGCAUGU
